Consider the following IC50 values measured on E. coli DNA gyrase (Escherichia coli, UniProt P0AES6).
ENDPOINT: IC50 (nM)

{"columns": ["COMPOUND", "UNIT", "EXPERIMENTAL_RESULT"],
 "data": [
  ["O=C(NCc1cc(=O)c(O)co1)c1ccc2nc(NC(=O)c3cc(Br)c(Br)[nH]3)sc2c1 [Compound 10]", "nM", 1420],
  ["O=C(O)c1cc(OCc2cc(=O)c(O)c[nH]2)c2nc(NC(=O)c3cc(Br)c(Br)[nH]3)sc2c1 [Compound 18a]", "nM", 12],
  ["O=C(NCc1cc(=O)c(O)c[nH]1)c1ccc2nc(NC(=O)c3cc(Br)c(Br)[nH]3)sc2c1 [Compound 12]", "nM", 1700],
  ["Cc1[nH]c(C(=O)Nc2nc3c(OCc4cc(=O)c(O)c[nH]4)cc(C(=O)O)cc3s2)c(Cl)c1Cl [Compound 18b]", "nM", 22]
]}
